Target: ΔF508-CFTR (Homo sapiens, UniProt P13569, DEL508-508)
Construct: host or cells: CFBE41o-, doxycycline-inducible
Sequence (P13569 with tags, fused parts or gaps DEL508-508): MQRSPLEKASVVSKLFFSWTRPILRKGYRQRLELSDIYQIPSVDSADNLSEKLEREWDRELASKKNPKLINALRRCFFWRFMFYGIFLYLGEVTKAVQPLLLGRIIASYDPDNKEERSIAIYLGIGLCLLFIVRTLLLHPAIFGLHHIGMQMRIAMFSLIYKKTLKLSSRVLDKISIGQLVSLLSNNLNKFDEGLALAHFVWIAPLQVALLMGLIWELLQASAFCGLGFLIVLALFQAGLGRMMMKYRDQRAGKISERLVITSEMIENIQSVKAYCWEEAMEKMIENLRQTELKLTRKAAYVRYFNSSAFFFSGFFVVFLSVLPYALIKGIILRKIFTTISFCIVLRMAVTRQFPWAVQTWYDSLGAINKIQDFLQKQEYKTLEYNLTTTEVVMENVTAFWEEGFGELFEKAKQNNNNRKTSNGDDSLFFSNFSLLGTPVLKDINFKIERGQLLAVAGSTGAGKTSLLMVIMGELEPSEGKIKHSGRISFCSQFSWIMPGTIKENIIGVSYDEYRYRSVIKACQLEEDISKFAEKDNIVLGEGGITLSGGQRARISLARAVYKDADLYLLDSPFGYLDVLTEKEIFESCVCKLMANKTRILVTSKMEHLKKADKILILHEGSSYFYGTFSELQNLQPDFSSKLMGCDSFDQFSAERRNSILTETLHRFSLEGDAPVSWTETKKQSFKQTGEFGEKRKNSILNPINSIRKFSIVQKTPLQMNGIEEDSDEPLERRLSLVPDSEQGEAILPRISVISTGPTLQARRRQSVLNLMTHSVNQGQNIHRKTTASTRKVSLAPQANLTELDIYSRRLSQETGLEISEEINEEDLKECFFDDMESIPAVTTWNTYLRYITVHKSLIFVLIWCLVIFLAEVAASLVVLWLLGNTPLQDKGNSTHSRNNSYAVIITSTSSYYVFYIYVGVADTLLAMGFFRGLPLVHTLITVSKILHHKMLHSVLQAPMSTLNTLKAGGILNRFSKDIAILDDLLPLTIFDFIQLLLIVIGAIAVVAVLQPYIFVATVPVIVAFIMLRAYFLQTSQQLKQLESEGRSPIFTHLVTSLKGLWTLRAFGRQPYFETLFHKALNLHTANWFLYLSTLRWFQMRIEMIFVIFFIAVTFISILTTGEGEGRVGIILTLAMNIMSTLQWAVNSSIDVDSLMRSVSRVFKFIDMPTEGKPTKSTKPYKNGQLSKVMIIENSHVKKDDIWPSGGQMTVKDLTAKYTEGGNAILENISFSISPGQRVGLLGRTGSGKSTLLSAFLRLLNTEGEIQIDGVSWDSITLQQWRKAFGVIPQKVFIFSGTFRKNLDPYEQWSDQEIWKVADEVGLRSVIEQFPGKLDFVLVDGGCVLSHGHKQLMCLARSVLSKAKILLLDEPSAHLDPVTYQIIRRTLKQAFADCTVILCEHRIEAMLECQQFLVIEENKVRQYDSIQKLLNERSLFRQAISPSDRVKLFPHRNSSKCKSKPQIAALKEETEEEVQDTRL
Assay: CFTR cell surface levels using HRP-tagged ΔF508-CFTR expressing CFBE cells, in the presence of a co-corrector
Assay type: cell-based
Conditions: HRP-tagged ΔF508-CFTR CFBE cells, in the presence of 3 μM co-corrector; read-out: EC50
measured attribute: EC50

* COCC1CCN(c2cc(C(=O)NS(C)(=O)=O)nc3c2c(C2CCC2)nn3-c2ccccc2)CC1 | 145 nM
* CS(=O)(=O)NC(=O)c1cc(-c2ccc(N3CCC(C#N)CC3)cc2)c2c(C3CCC3)nn(C3CCCCC3)c2n1 | 409 nM
* COC1CCN(c2cc(C(=O)NS(C)(=O)=O)nc3c2c(C(C)C)nn3-c2ccnc(N3CCCC3)c2)CC1 | 160 nM
* CC(C)Oc1nn(C2CCCCC2)c2nc(C(=O)NS(=O)(=O)N(C)C)cc(-c3ccc(N4CCN(C(C)C)CC4)cc3)c12 | 344 nM
* COCCN(C)c1ccc(-c2cc(C(=O)NS(C)(=O)=O)nc3c2c(C(C)C)nn3-c2cccc(N3CCOCC3)c2)cc1 | 413 nM
* CS(=O)(=O)NC(=O)c1cc(OCCCN2CCCCC2)c2c(C3CCC3)nn(-c3ccccc3)c2n1 | 693 nM
* CCOCC1(F)CCN(c2cc(C(=O)NS(C)(=O)=O)nc3c2c(C2CCC2)nn3-c2ccccc2)CC1 | 124 nM
* COCCOCC1(F)CCCN(c2cc(C(=O)NS(C)(=O)=O)nc3c2c(C(C)C)nn3-c2ccc(F)cc2)C1 (centres unmarked) | 253 nM
* CN1CCN(S(=O)(=O)NC(=O)c2cc(N3CCC(CN4CCCC4)CC3)c3c(C4CCC4)nn(-c4ccccc4)c3n2)CC1 | 505 nM
* COCC1CCN(c2cc(C(=O)NS(=O)(=O)C3(C)CC3)nc3c2c(C2CCC2)nn3-c2ccccc2)CC1 | 196 nM
* CN(C)S(=O)(=O)NC(=O)c1cc(N2CCC(N3CCOCC3)CC2)c2c(C3CCC3)nn(-c3cccc(F)c3)c2n1 | 65.3 nM
* CS(=O)(=O)NC(=O)c1cc(CN2CCC(N3CCOCC3)CC2)c2c(C3CCC3)nn(-c3ccc(F)cc3)c2n1 | 1910 nM
* CN(C(=O)c1cc(N2CCC(N3CCOCC3)CC2)c2c(C3CCC3)nn(-c3ccc(F)cc3)c2n1)S(C)(=O)=O | 114 nM
* O=C(NS(=O)(=O)N1CCC(N2CCCCC2)CC1)c1cc(OCC2CCOCC2)c2c(C3CCC3)nn(-c3ccccc3)c2n1 | 346 nM
